# SYSTEM: UniProtKB Q02127
# TEST: Inhibition of C-terminal His6-tagged human DHODH (amino acid residues 30 to 396) expressed in Escherichia coli BL21 cells assessed as orotic acid production using dihydroorotate as substrate by DCIP dye-based assay
REPORTED ENDPOINT: IC50 (µM)
Just the number please, in µM, no unit attached.

Examples with their reported IC50 follow.
Cc1cc(Nc2cc(F)c(C(F)(F)F)c(F)c2)n2nc(C(F)(F)F)nc2n1 : 1.6
Cc1cc(Nc2cc(F)c(C(F)(F)F)c(F)c2)n2nc(C(C)(F)F)nc2n1 : 2.1

Please give the measured IC50 for this compound: Cc1cc(Nc2ccc(C(F)(F)F)c(F)c2)n2nc(C(C)(F)F)nc2n1
17

###

# SYSTEM: Dihydroorotate dehydrogenase (quinone), mitochondrial (Homo sapiens)
# Sequence (Q02127 whole entry, the tested form may be a part): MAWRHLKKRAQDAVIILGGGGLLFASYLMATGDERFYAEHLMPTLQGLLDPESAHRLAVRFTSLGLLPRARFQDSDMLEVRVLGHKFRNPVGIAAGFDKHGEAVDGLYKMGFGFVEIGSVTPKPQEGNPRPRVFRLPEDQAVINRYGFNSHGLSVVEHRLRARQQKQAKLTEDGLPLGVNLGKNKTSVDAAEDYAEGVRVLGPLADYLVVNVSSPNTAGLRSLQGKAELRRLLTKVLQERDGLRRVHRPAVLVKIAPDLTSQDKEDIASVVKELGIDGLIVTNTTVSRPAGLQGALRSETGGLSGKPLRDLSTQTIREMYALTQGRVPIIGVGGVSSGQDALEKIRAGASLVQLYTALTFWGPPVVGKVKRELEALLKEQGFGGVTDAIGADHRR
# TEST: Inhibition of C-terminal His6-tagged human DHODH (amino acid residues 33 to 396) expressed in Escherichia coli BL21 cells assessed as orotic acid production using dihydroorotate as substrate by direct assay in presence of oxygen depleting system
REPORTED ENDPOINT: pIC50
Note: pIC50 values are expressed as the negative base-10 logarithm of concentration in M.

Cc1cc(Nc2cc(F)c(C(F)(F)F)c(F)c2)n2nc(C(F)(F)F)nc2n1 : 5.68

Please give the measured pIC50 for this compound: Cc1cc(Nc2ccc(C(F)(F)F)c(F)c2)n2nc(C(C)(F)F)nc2n1
4.35

Input Cc1cc(Nc2cc(F)c(C(F)(F)F)c(F)c2)n2nc(C(C)(F)F)nc2n1
5.57

###

# Dihydroorotate dehydrogenase (Plasmodium falciparum): pKd values follow
Note: pKd values are expressed as the negative base-10 logarithm of concentration in M.

Please give the measured pKd for this molecule: Cc1cc(Nc2ccc(C(F)(F)F)cc2)n2nc(C(C)(F)F)nc2n1
7.57

Input Cc1cc(Nc2cc(F)c(C(F)(F)F)c(F)c2)n2nc(C(C)(F)F)nc2n1
8.29

Input Cc1cc(Nc2ccc(C(F)(F)F)c(F)c2)n2nc(C(C)(F)F)nc2n1
8.01

Input Cc1cc(Nc2cc(F)c(C(F)(F)F)c(F)c2)n2nc(C(F)(F)F)nc2n1
8.02

###

# SYSTEM: Dihydroorotate dehydrogenase (Plasmodium falciparum)
# Sequence (Q54A96 whole entry): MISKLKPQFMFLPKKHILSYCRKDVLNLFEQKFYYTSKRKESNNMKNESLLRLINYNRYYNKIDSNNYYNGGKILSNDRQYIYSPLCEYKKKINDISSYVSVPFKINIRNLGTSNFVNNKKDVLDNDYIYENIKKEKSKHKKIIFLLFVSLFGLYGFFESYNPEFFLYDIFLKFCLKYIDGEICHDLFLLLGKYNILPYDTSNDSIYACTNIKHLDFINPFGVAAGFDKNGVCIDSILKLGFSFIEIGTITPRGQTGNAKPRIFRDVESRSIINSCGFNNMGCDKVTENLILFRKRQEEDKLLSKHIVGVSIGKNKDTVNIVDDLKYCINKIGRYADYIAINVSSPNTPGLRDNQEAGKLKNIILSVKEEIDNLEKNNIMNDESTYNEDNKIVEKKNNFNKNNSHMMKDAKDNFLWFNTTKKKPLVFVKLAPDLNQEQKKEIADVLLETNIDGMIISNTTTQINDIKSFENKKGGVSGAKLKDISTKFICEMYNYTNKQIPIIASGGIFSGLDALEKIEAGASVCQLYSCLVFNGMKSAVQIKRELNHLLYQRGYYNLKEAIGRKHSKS
# TEST: Inhibition of N-terminal His6-tagged recombinant Plasmodium falciparum DHODH (amino acid residues 158 to 569) expressed in Escherichia coli BL21 cells assessed as orotic acid production using dihydroorotate as substrate by DCIP dye-based assay
Measured IC50, listed per entry.
Just the number please, in nM, no unit attached.

Examples with their reported IC50 follow.
Cc1cc(Nc2ccc(C(F)(F)F)cc2)n2nc(C(C)(F)F)nc2n1 : 46
Cc1cc(Nc2ccc(C(F)(F)F)c(F)c2)n2nc(C(C)(F)F)nc2n1 : 35
Cc1cc(Nc2cc(F)c(C(F)(F)F)c(F)c2)n2nc(C(F)(F)F)nc2n1 : 22

Would you kindly look at the next entry?
Please give the measured IC50 for this molecule: Cc1cc(Nc2cc(F)c(C(F)(F)F)c(F)c2)n2nc(C(C)(F)F)nc2n1
20

###

# SYSTEM: Dihydroorotate dehydrogenase (quinone), mitochondrial (Rattus norvegicus, UniProt Q63707)
# Sequence (Q63707 whole entry, the tested form may be a part): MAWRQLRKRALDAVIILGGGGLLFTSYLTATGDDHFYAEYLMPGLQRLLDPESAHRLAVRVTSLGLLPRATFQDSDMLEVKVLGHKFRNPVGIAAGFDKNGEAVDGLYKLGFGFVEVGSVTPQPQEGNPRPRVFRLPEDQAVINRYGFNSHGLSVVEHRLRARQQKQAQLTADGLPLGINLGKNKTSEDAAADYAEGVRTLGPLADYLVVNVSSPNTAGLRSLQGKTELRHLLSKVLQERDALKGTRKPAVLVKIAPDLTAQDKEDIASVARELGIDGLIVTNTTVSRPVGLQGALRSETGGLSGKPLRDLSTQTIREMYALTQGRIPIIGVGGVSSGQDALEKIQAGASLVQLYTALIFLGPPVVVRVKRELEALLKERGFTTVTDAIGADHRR
# TEST: Inhibition of rat DHODH (amino acid residues 30 to 396) expressed in Escherichia coli BL21 cells assessed as orotic acid production using dihydroorotate as substrate by DCIP dye-based assay
REPORTED ENDPOINT: pIC50
Note: pIC50 values are expressed as the negative base-10 logarithm of concentration in M.

Please give the measured pIC50 for this compound: Cc1cc(Nc2ccc(C(F)(F)F)cc2)n2nc(C(F)(F)F)nc2n1
5.46

###

# SYSTEM: Dihydroorotate dehydrogenase (quinone), mitochondrial (Rattus norvegicus)
REPORTED ENDPOINT: Kd (µM)
Just the number please, in µM, no unit attached.

Please give the measured Kd for this compound: Cc1cc(Nc2cc(F)c(C(F)(F)F)c(F)c2)n2nc(C(C)(F)F)nc2n1
0.048

###

# TEST: Partition coefficient, log D of the compound at pH 7.4 by chromatography
# Format: physicochemical
# TEST SETTINGS: octanol/water
Each record is given Met if its reported logD is strictly below 4. Records at or above 4 are given Not met.

Below 4 on logD? Entry Cc1cc(Nc2ccc(C(F)(F)F)cc2)n2ncnc2n1
Met

Input Cc1cc(Nc2ccc(C(F)(F)F)c(F)c2)n2nc(C(C)(F)F)nc2n1
Not met

Input Cc1cc(Nc2cc(F)c(C(F)(F)F)c(F)c2)n2nc(C(F)(F)F)nc2n1
Not met

Input Cc1cc(Nc2cc(F)c(C(F)(F)F)c(F)c2)n2nc(C(C)(F)F)nc2n1
Not met

###

# SYSTEM: Dihydroorotate dehydrogenase (quinone), mitochondrial (Mus musculus, UniProt O35435)
# Sequence (O35435 whole entry, the tested form may be a part): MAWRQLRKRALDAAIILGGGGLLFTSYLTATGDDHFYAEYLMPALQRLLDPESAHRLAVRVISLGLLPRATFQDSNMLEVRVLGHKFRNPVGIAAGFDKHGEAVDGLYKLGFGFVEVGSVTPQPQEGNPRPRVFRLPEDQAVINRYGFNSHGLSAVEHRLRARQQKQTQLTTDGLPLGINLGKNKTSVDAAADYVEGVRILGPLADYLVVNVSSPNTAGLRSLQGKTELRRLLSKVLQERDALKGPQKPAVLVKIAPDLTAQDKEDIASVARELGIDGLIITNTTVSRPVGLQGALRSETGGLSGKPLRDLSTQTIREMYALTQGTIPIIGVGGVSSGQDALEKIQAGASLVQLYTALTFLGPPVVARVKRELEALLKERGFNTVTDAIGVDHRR
# TEST: Inhibition of mouse DHODH (amino acid residues 30 to 396) expressed in Escherichia coli BL21 cells assessed as orotic acid production using dihydroorotate as substrate by DCIP dye-based assay
REPORTED ENDPOINT: IC50 (nM)
Just the number please, in nM, no unit attached.

Examples with their reported IC50 follow.
Cc1cc(Nc2cc(F)c(C(F)(F)F)c(F)c2)n2nc(C(C)(F)F)nc2n1 : 180
Cc1cc(Nc2cc(F)c(C(F)(F)F)c(F)c2)n2nc(C(F)(F)F)nc2n1 : 88

Please give the measured IC50 for this molecule: Cc1cc(Nc2ccc(C(F)(F)F)c(F)c2)n2nc(C(C)(F)F)nc2n1
1600

Input Cc1cc(Nc2ccc(C(F)(F)F)cc2)n2nc(C(F)(F)F)nc2n1
9700

###

# SYSTEM: Dihydroorotate dehydrogenase (quinone), mitochondrial (Homo sapiens)
# TEST: Inhibition of C-terminal His6-tagged human DHODH (amino acid residues 30 to 396) expressed in Escherichia coli BL21 cells assessed as orotic acid production using dihydroorotate as substrate by DCIP dye-based assay
pIC50: −log10 of the molar value.
Measured pIC50, listed per entry.

Cc1cc(Nc2ccc(C(F)(F)F)cc2)n2nc(C(F)(F)F)nc2n1 : < 4.00
Cc1cc(Nc2ccc(C(F)(F)F)cc2)n2nc(C(C)(F)F)nc2n1 : < 4.00

Please give the measured pIC50 for this compound: Cc1cc(Nc2cc(F)c(C(F)(F)F)c(F)c2)n2ncnc2n1
< 4.00

###

# SYSTEM: Dihydroorotate dehydrogenase (quinone), mitochondrial (Rattus norvegicus, UniProt Q63707)
# TEST: Inhibition of rat DHODH (amino acid residues 30 to 396) expressed in Escherichia coli BL21 cells assessed as orotic acid production using dihydroorotate as substrate by DCIP dye-based assay
Measured pIC50, listed per entry.
Note: pIC50 values are expressed as the negative base-10 logarithm of concentration in M.

Examples with their reported pIC50 follow.
Cc1cc(Nc2cc(F)c(C(F)(F)F)c(F)c2)n2nc(C(C)(F)F)nc2n1 : 6.89
Cc1cc(Nc2cc(F)c(C(F)(F)F)c(F)c2)n2nc(C(F)(F)F)nc2n1 : 7.31
Cc1cc(Nc2ccc(C(F)(F)F)c(F)c2)n2nc(C(C)(F)F)nc2n1 : 6.10

Would you kindly look at the next entry?
Please give the measured pIC50 for this compound: Cc1cc(Nc2cc(F)c(C(F)(F)F)c(F)c2)n2ncnc2n1
4.43
